Origin of measurements: ChEMBL document CHEMBL4622853

The entries below are paired with their reported inhibition.
- measurement-target: Serine/threonine-protein kinase B-raf (Homo sapiens)
- Sequence (P15056 whole entry): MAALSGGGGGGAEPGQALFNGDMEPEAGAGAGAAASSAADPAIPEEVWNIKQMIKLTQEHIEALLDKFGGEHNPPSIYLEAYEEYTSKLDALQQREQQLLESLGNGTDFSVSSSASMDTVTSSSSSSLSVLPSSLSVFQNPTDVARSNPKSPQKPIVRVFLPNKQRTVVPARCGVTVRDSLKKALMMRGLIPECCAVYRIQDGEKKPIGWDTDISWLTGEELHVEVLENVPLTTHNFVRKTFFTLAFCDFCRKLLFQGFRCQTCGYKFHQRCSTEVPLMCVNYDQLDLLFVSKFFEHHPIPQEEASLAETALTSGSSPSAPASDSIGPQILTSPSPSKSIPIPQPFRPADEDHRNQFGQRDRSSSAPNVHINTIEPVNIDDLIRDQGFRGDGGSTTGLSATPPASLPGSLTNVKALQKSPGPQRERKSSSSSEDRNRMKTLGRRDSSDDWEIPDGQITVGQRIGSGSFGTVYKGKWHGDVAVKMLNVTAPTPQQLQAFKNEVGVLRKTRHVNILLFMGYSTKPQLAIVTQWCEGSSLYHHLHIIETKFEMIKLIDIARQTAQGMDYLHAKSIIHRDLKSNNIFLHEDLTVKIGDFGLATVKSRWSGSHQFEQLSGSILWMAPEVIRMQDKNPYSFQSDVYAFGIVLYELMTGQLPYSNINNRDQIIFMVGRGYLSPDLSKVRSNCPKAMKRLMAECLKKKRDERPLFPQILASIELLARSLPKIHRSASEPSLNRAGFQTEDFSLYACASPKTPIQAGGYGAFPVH
- experiment-description: Inhibition of human wild type BRAF at 10 uM by ELISA

smiles	measurement-target	inhibition, %
O=S(=O)(NCCCNc1nccc(-n2ccc3cccnc32)n1)c1cccc(C(F)(F)F)c1	Serine/threonine-protein kinase B-raf (Homo sapiens)	86.3
O=C(Nc1ccc(F)c(C(=O)c2c[nH]c3ncccc23)c1F)Nc1cccc2ccccc12	Serine/threonine-protein kinase B-raf (Homo sapiens)	68.9
O=C(Nc1ccc(C(F)(F)F)cc1)Nc1ccc(F)c(C(=O)c2c[nH]c3ncccc23)c1F	Serine/threonine-protein kinase B-raf (Homo sapiens)	79.3
O=S(=O)(NCCNc1nccc(-n2ccc3cccnc32)n1)c1ccc(Cl)cc1	Serine/threonine-protein kinase B-raf (Homo sapiens)	49.2
O=S(=O)(NCCNc1nccc(-n2ccc3cccnc32)n1)c1ccccc1	Serine/threonine-protein kinase B-raf (Homo sapiens)	52.3
O=S(=O)(NCCCNc1nccc(-n2ccc3cccnc32)n1)c1ccc(Br)cc1	Serine/threonine-protein kinase B-raf (Homo sapiens)	75.2
O=S(=O)(NCCNc1nccc(-n2ccc3cccnc32)n1)c1cccc(C(F)(F)F)c1	Serine/threonine-protein kinase B-raf (Homo sapiens)	10.2
O=C(NCCNc1nccc(-n2ccc3cccnc32)n1)c1ccc(Cl)cc1	Serine/threonine-protein kinase B-raf (Homo sapiens)	-1.1
O=C(NCCNc1nccc(-n2ccc3cccnc32)n1)c1c(F)cccc1F	Serine/threonine-protein kinase B-raf (Homo sapiens)	0.1
O=C(NCCCNc1nccc(-n2ccc3cccnc32)n1)C1CCCCC1	Serine/threonine-protein kinase B-raf (Homo sapiens)	41.2
